Biological target: Sentrin-specific protease 6 (Homo sapiens) (UniProt Q9GZR1)
Sequence (Q9GZR1 628-1112 limits assumed): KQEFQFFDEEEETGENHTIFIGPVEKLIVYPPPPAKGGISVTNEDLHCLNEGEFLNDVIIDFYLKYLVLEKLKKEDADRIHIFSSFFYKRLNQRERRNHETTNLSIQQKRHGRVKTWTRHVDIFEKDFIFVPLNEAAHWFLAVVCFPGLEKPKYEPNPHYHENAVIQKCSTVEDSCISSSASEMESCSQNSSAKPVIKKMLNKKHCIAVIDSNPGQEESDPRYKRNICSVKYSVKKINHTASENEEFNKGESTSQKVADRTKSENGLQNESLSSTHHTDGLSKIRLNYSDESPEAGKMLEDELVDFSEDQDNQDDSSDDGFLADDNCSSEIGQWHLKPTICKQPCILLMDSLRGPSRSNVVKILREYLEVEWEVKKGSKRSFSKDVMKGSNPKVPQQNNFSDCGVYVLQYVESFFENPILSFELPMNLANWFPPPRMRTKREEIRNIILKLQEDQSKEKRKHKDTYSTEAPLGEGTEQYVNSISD
Experiment: SENP6 protease inhibitors, primary screen, biochemical, luminescence, uHTS (AID 2599);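 further: plate controls were DMSO wells with enzyme for no effect and DMSO wells lacking enzyme for full effect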
Details: Recombinant SENP6 catalytic domain, aminoluciferin luminescence; at 10 µM
Out of some 330,000 compounds screened, about 5,800 (1.8%) were called active.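 How the source made its calls: active means inhibition above about 50% at the single tested dose (limit read from the data); inactive means the rest.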 For the sample, actives were picked, then their nearest neighbours and some compounds at random.
Labels: 1.0 = active, 0.0 = inactive

Molecule	Label Class
Cc1ccc2cccc(S(=O)(=O)N3CCN(c4ccccc4F)CC3)c2n1	0.0
Clc1ccc(-n2nnnc2-c2cnc(-c3ccccn3)nc2-c2cccs2)cc1	0.0
Cc1ccn(-c2cccc(-n3ccc(C)n3)n2)n1	0.0
O=C(CN1CCN(c2ccccc2F)CC1)c1ccc2c(c1)OCO2	0.0
CCC(CO)Oc1cc(NC(=O)c2ccc(Cl)cc2)c2ncn(C(C)C)c2c1 (centres undefined)	0.0
CCc1nnc(NC(=O)CSc2nnnn2-c2cccc(C(C)=O)c2)s1	0.0
O=C(O)c1ccc2c(c1)C(=O)N(NC(=O)c1ccc(O)cc1)C2=O	0.0
CC(C)n1cnc2c(NCc3ccccc3)cc(N[C@@H](CO)Cc3ccccc3)cc21	1.0
Cc1ccc(NS(=O)(=O)c2ccc(-c3coc(C)n3)cc2)c(C)c1	0.0
COc1cccc(C(=O)Nc2nnc(S(=O)(=O)N(C)c3ccccc3)s2)c1	0.0
Cc1ccc(C(=O)N/N=C\c2cc(Br)c(Br)o2)cn1	1.0
CC(OC(=O)c1ccc2ccccc2n1)C(=O)c1ccccc1 (centres undefined)	1.0
C/C(=N\NC(=O)c1ccoc1C)c1ccccc1O	1.0
COc1cc(NC(=O)CSc2ccc(-c3cccnc3)nn2)cc(OC)c1	0.0
O=C(c1cccc(S(=O)(=O)Nc2ccccc2Cl)c1)N1CCN(C(=O)c2ccco2)CC1	0.0
CCC(CO)Oc1cc(NCc2ccccc2)c2ncn(C3CCCC3)c2c1 (centres undefined)	0.0
COc1cccc(C(=O)Nc2nc3ccc(S(C)(=O)=O)cc3s2)c1	1.0
c1ccc(CCc2nc(-c3ccncc3)no2)cc1	0.0
Cc1nnc(CN(C)Cc2cn[nH]c2-c2ccc(-c3ccccc3)cc2)o1	0.0
Cc1ccc(S(=O)(=O)N(C)C)cc1NC(=O)C(C)OC(=O)c1ccc2ccccc2n1 (centres undefined)	0.0
Cc1ccc(SC(CC(=O)c2ccc(C(C)(C)C)cc2)C(=O)O)cc1 (centres undefined)	0.0
Cc1[nH]c(C)c(S(=O)(=O)N2CCC(C)CC2)c1C(=O)N1CCCC1	0.0
Fc1ccccc1-c1cc2cc3c(cc2cn1)OCO3	1.0
CCC(CO)Oc1cc(NC(=O)c2cccc(F)c2)c2ncn(C(C)C)c2c1 (centres undefined)	0.0
c1csc(-c2nc(-c3ccncc3)no2)c1	1.0
Cc1ccccc1CSc1nnc(-c2ccccn2)n1N	0.0
CC(C)n1cnc2c(NCc3ccccc3)cc(OCC3CCN(C)CC3)cc21	1.0
O=C(Oc1ccc(-c2nc(-c3ccccn3)no2)cc1)c1ccccc1	1.0
CN1CCNC(=O)C1CC(=O)N1CC=C(c2ccc(F)cc2)CC1 (centres undefined)	0.0

====

Each entry below lists one item and its recorded inhibition value.
Biological target: Sentrin-specific protease 6 (Homo sapiens)
Test: SENP6 protease inhibitors, primary screen, biochemical, luminescence, uHTS (AID 2599);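 further: plate controls were DMSO wells with enzyme for no effect and DMSO wells lacking enzyme for full effect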
Settings: Recombinant SENP6 catalytic domain, aminoluciferin luminescence; at 10 µM; active compounds read high
Screen size: about 330,000 compounds; about 5,800 (1.8%) were called active. For the sample, actives were picked, then their nearest neighbours and some compounds at random.
Endpoint: inhibition (%)

Compound	Result
CCCCN(CC)CCNC(=O)CCNC(=O)Cn1ccc2ccccc2c1=O	-9.66
COc1ccc(C(=O)Nc2ccccc2C(=O)N/N=C/c2ccc(O)c(OC)c2)cc1	98.7
CCc1ccc(CN(C)C(=O)C2CCC(=O)N(Cc3cccc(OC)c3)C2)nc1 (stereo not drawn)	-7.64
